Molecular target: hNET (Homo sapiens, UniProt P23975)
Sequence (P23975 whole entry): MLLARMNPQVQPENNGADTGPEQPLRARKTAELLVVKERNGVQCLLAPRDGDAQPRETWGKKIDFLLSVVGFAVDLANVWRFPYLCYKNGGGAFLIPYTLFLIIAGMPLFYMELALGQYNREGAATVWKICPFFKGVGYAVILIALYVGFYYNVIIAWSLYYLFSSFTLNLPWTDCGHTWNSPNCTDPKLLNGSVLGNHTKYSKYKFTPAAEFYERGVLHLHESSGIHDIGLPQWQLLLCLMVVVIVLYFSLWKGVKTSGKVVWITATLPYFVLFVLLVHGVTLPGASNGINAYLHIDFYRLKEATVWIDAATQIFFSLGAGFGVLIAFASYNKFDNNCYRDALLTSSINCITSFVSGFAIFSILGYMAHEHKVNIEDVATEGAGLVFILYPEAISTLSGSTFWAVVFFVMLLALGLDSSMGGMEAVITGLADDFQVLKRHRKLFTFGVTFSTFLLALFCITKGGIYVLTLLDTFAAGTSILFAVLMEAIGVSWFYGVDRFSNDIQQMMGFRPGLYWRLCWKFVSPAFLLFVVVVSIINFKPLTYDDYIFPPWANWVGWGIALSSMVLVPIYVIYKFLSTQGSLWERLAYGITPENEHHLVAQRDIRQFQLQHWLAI
Assay: biochemical
Type: binding
pKi: −log10 of the molar value.
outcome measure: pKi

Provide only the value of recorded pKi for COc1cc(CC(C)N)c(OC)cc1Cl (stereo not shown)
< 5.11

Output measured pKi for this item: CCc1cc(OC)c(CCN)cc1OC
< 5.12

# return recorded pKi for entry CN[C@@H](C)Cc1ccccc1 [METH, methamphetamine, reference compound]
5.83

Please supply the value of reported pKi for the item COc1cc(CCN)c(OC)cc1I
< 5.00

New cases:
Output measured pKi for this item: CCSc1cc(OC)c(CCN)cc1OC
< 5.00

Return value of pKi for input COc1cc(CCN)c(OC)cc1Cl , no commentary.
< 5.12

For the compound COc1cc(CCN)c(OC)cc1C , give its measured pKi value.
< 5.07
